Experiment: Pharmacokinetics of the compound in rats (intravenous and oral)
Format: in vivo
Details: male, SD, plasma, 100 mg/kg; rat, intravenous bolus 100 mpk
metric_name: clearance

*Q* Entry under review: CCOc1ccc2c(c1C(=O)O)O[B-](O)(O)CO2 [Compound 15] . Reported clearance?
*A* 3.02 mL/min/kg

----------
Assay: Pharmacokinetics of the compound in rats (intravenous and oral)
Type: in vivo
Conditions: male, SD, plasma, 100 mg/kg; rat, oral 100 mpk
metric_name: half-life (h)
Answer with a number only, understood to be in h.

*Q* Item "CCOc1ccc2c(c1C(=O)O)O[B-](O)(O)CO2" has what recorded half-life?
*A* 4.99

----------
Test: Pharmacokinetics of the compound in rats (intravenous and oral)
Type: in vivo
Conditions: male, SD, plasma, 100 mg/kg; rat, intravenous bolus 100 mpk
metric_name: AUC(0-t) (µg·h/mL)
Lab book: enter the figure in µg·h/mL, no units written.

*Q* For the compound "CCOc1ccc2c(c1C(=O)O)O[B-](O)(O)CO2" , what AUC(0-t) is on record?
*A* 549

----------
Assay: Pharmacokinetics of the compound in rats (intravenous and oral)
Format: in vivo
Details: male, SD, plasma, 100 mg/kg; rat, oral 100 mpk
metric_name: Cmax
Hi, when you answer, please include the unit after the number. Thanks!

*Q* Report Cmax for CCOc1ccc2c(c1C(=O)O)O[B-](O)(O)CO2 [Compound 15] please.
*A* 35200 ng/mL

----------
Assay: Pharmacokinetics of the compound in rats (intravenous and oral)
Assay type: in vivo
Details: male, SD, plasma, 300 mg/kg; rat, intravenous bolus 300 mpk
metric_name: AUC(0-t) (µg·h/mL)
Please respond with the number in µg·h/mL and leave the unit unwritten.

*Q* Recorded AUC(0-t) of CCOc1ccc2c(c1C(=O)O)O[B-](O)(O)CO2 [Compound 15] , please.
*A* 1160

----------
Test: Pharmacokinetics of the compound in rats (intravenous and oral)
Assay type: in vivo
Settings: male, SD, plasma, 100 mg/kg; rat, intravenous bolus 100 mpk; read-out: Vdss
metric_name: Vd (L/kg)
Could you give me the number in L/kg? Just the number is fine.

*Q* Would you kindly share the measured Vd for "CCOc1ccc2c(c1C(=O)O)O[B-](O)(O)CO2" ?
*A* 0.583

----------
Test: Pharmacokinetics of the compound in rats (intravenous and oral)
Assay type: in vivo
Conditions: male, SD, plasma, 300 mg/kg; rat, intravenous bolus 300 mpk
metric_name: half-life
Just the number plus its unit, please.

*Q* Which measured half-life value corresponds to "CCOc1ccc2c(c1C(=O)O)O[B-](O)(O)CO2" ?
*A* 4.56 h

----------
Assay: Pharmacokinetics of the compound in rats (intravenous and oral)
Assay type: in vivo
Details: male, SD, plasma, 100 mg/kg; rat, oral 100 mpk; AUC0-inf (100 mpk PO)/AUC0-inf (100 mpk IV)
metric_name: bioavailability (%)
Give the quantity in %, number only.

*Q* GET /values?readout=bioavailability&item= "CCOc1ccc2c(c1C(=O)O)O[B-](O)(O)CO2"
*A* 52.2

----------
Assay: Pharmacokinetics of the compound in rats (intravenous and oral)
Assay type: in vivo
Details: male, SD, plasma, 100 mg/kg; rat, intravenous bolus 100 mpk
metric_name: half-life
Quick note: unit goes after the number.

*Q* Could you share which half-life value was measured for CCOc1ccc2c(c1C(=O)O)O[B-](O)(O)CO2 [Compound 15] ?
*A* 3.9 h

----------
We begin with a simple list: items and their reported MIC.
Tested on: Klebsiella pneumoniae ATCC BAA-2470 (NDM-1)
Test: MIC shift, liquid microdilution, meropenem fixed at 4 μg/mL
Assay type: cell-based
Conditions: compound + meropenem fixed at 4 μg/mL; K. pneumoniae ATCC BAA-2470, NDM-1
# output: bare number, implied unit µg/mL

Reference set (3 entries):
- smiles_structure: "O=C(O)c1c(Cl)ccc2c1OB(O)CO2"
  unit_of_measure: "µg/mL"
  MIC: 20
- smiles_structure: "O=C(O)c1c2c(cc3c1O[B-](O)(O)CO3)CCCO2"
  unit_of_measure: "µg/mL"
  MIC: 5
- smiles_structure: "O=C(O)c1ccc(Cl)c2c1OB(O)CO2"
  unit_of_measure: "µg/mL"
  MIC: 20

*Q* Look up MIC for this compound: "Cc1ccc2c(c1C(=O)O)O[B-](O)(O)CO2"
*A* 10

*Q* Would you kindly share the measured MIC for "O=C(O)c1c(F)cc(Cl)c2c1OB(O)CO2" ?
*A* 2.5

*Q* What value of measured MIC is listed for "COc1c(Cl)c(Cl)c2c(c1C(=O)O)OB(O)CO2" ?
*A* 5

*Q* Entry "COc1cc2c(c(C(=O)O)c1F)O[B-](O)(O)CO2" has what MIC?
*A* 5

*Q* Suppose we examine the compound "O=C(O)c1c(OCC2CC2)ccc2c1O[B-](O)(O)CO2" ; what MIC value has been reported?
*A* 2.5

*Q* Form field: reported MIC of "COc1cc(Cl)c2c(c1C(=O)O)OB(O)CO2"
*A* 2.5

----------
In this section we review reported MIC values for a set of molecules.
Tested on: Klebsiella pneumoniae ATCC BAA-2470 (NDM-1)
Test: MIC shift, liquid microdilution, meropenem fixed at 4 μg/mL
Format: cell-based
Conditions: compound + meropenem fixed at 4 μg/mL; K. pneumoniae ATCC BAA-2470, NDM-1
Record the value in µg/mL, omitting the unit from your answer.

Reference set (5 entries):
- molecule: "O=C(O)c1c(OC2COC2)ccc2c1O[B-](O)(O)CO2 [Compound 23]"
  reported: 1.25
- molecule: "O=C(O)c1c(F)c(F)cc2c1OB(O)CO2 [Compound 6]"
  reported: 10
- molecule: "CCOc1ccc2c(c1C(=O)O)O[B-](O)(O)CO2 [Compound 15]"
  reported: 0.625
- molecule: "O=C(O)c1c(F)ccc2c1OB(O)CO2 [Compound 8]"
  reported: 20
- molecule: "CCCOc1ccc2c(c1C(=O)O)O[B-](O)(O)CO2 [Compound 29]"
  reported: 2.5

*Q* Return reported MIC; argument: COc1ccc2c(c1C(=O)O)OB(O)CO2 [Compound 3]
*A* 5

*Q* Consider the molecule O=C(O)c1cc(F)cc2c1OB(O)CO2 [Compound 10] and give its measured MIC.
*A* 5

----------
Readings of MIC for the listed compounds
Tested on: Klebsiella pneumoniae ATCC BAA-2470 (NDM-1)
Experiment: MIC shift, liquid microdilution, meropenem fixed at 4 μg/mL
Assay type: cell-based
Details: compound + meropenem fixed at 4 μg/mL; K. pneumoniae ATCC BAA-2470, NDM-1

- compound: "COB1Oc2c(ccc(F)c2C(=O)O)OC1(C)C [Compound 2]"
  reported: ">20 µg/mL"
- compound: "COB1COc2ccc(F)c(C(=O)O)c2O1 [Compound 9]"
  reported: ">20 µg/mL"

Field: next compound
*Q* MIC lookup needed for CC1(C)Oc2ccc(F)c(C(=O)O)c2OB1O [Compound 1] , thanks.
*A* >20 µg/mL

Measured values drawn from patent US12590108B2 for this set.
